experiment: in vitro; details: dog, MDCK
Provide the reported Papp B→A of each item.
Write it as a number; the unit nm/s goes unstated.

Input: Consider the compound "C[C@@H]1C[C@H]2[C@@H]3CCC4=C/C(=N/NC(=O)[C@@H](N)Cc5ccccc5)C=C[C@]4(C)[C@@]3(F)[C@@H](O)C[C@]2(C)[C@@]1(O)C(=O)CO" and give its measured Papp B→A.
Output: 12.9

Input: Consider the compound "C[C@@H]1C[C@H]2[C@@H]3CCC4=C/C(=N/NC(=S)[C@@H](N)Cc5ccccc5)C=C[C@]4(C)[C@@]3(F)[C@@H](O)C[C@]2(C)[C@@]1(O)C(=O)CO" and give its measured Papp B→A.
Output: 18.2

Input: Consider the compound "C[C@@H]1C[C@H]2[C@@H]3CCC4=C/C(=N\NC(=O)[C@@H](N)Cc5ccccc5)C=C[C@]4(C)[C@@]3(F)[C@@H](O)C[C@]2(C)[C@@]1(O)C(=O)CO" and give its measured Papp B→A.
Output: 8.7

All figures here come from patent US20260263603A1.
